Reference source for all entries: patent US20230044787A1

- targetOrSystem: Lp-PLA2 (Homo sapiens)
- Construct: aliquoted and thawed 40 μL of pooled human plasma was previously added; from tissue; host or cells: pooled human plasma
- Sequence (Q13093 22-441): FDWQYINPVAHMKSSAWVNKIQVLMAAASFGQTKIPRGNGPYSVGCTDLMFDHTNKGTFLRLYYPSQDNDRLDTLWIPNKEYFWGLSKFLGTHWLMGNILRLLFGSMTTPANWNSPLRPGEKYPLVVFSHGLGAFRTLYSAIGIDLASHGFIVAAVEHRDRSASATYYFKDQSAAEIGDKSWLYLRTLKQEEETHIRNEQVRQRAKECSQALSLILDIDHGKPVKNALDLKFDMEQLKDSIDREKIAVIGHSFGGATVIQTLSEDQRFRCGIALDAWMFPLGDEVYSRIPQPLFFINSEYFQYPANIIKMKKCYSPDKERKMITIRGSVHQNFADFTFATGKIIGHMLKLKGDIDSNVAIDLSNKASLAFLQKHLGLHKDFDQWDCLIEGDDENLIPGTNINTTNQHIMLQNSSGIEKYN
- protocol: Lipoprotein-associated phospholipase A2 (Lp-PLA2) human plasma assay (Thio-PAF assay)
- Assay type: biochemical
- particulars: Lp-PLA2 human plasma assay (Thio-PAF), pooled human plasma, 30-min pre-incubation at room temperature
- Method: Lipoprotein-Associated Phospholipase A2 (Lp-PLA2) Human Plasma Assay The amount of sulfhydryl groups is continuously determined by the reaction with CPM (7-diethylamino-3-(4′-maleimidophenyl)-4-methylcoumarin), and the CPM is a maleimide of which fluorescence increases after Michael addition of sulfhydryl group. This assay can detect Lp-PLA2 activity in human plasma, as determined by specific inhibition of Lp-PLA2 inhibitors. Thio-PAF assay was performed as quenched 75 μL assay. […]
pIC50: −log10 of the molar value.
Tick yes if pIC50 is 8 or greater. Tick no if pIC50 is less than 8.

(Q) Entry O=c1nc(OCc2cc(F)c(Oc3ccnc(C(F)(F)F)c3)c(F)c2)cc2n1C[C@]13CO[C@H](CN21)C3 [Example 1] : is its pIC50 no less than 8?
(A) yes

(Q) Check if pIC50 >= 8 (inclusive). Item: N#Cc1cc(COc2cc3n(c(=O)n2)CC24CCC(CC2)N34)ccc1F [Example 163]
(A) yes

(Q) Identify whether the reported pIC50 of the following compound is 8 or greater: O=c1nc(OCc2cccc(F)c2F)cc2n1CC13CC(CN21)C3 [Example 45]
(A) no

(Q) Textbook exercise: given the entry O=c1nc(OCc2cc(F)c(Oc3ccc(C(F)(F)F)cc3)c(F)c2)cc2n1C[C@]13CO[C@H](CN21)C3 [Example 144] , state whether its pIC50 is greater than or equal to 8.
(A) yes

(Q) Answer whether pIC50 of O=c1nc(OCc2cc(F)c(Oc3ccnc(C(F)(F)F)c3)c(F)c2)c(F)c2n1C[C@]13CO[C@H](CN21)C3 [Example 88] is greater than or equal to 8.
(A) yes

(Q) Determine whether measured pIC50 meets or exceeds 8 for Cn1cc(Oc2c(F)cc(COc3cc4n(c(=O)n3)CC35CC(CN43)C5)cc2F)cn1 [Example 94]
(A) no

(Q) Check this compound for pIC50 at or above 8: [2H]C1([2H])n2c(cc(OCc3cc(F)c(Oc4ccnc(C(F)(F)F)c4)c(F)c3)nc2=O)N2C[C@@H]3C[C@@]21CO3 [Example 93]
(A) yes

(Q) API: above_or_equal(metric=pIC50, cutoff=8) for item COc1c(OCCc2ccc(Oc3cccc(C(F)(F)F)c3)cc2)nc(=O)n2c1N1CC3CC1(C3)C2 [Example 184]
(A) no

(Q) Has O=C1N(CC23CC(C2)C3)[C@@H]2CN3c4cc(OCc5ccc(Oc6ccnc(C(F)(F)F)c6)c(F)c5)nc(=O)n4C[C@]13C2 [Example 198] a recorded pIC50 greater than or equal to 8?
(A) yes

(Q) Given COc1c(OCc2ccc(F)c(F)c2)nc(=O)n2c1N1CC3CC1(C3)C2 [Example 150] , state whether its pIC50 is at least 8.
(A) yes

(Q) Textbook exercise: given the entry O=c1nc(OCc2cc(F)c(Oc3cccc(C(F)F)c3)c(F)c2)cc2n1C[C@]13CO[C@H](CN21)C3 [Example 179] , state whether its pIC50 is greater than or equal to 8.
(A) yes
